molecular target: human RORγt LBD (Homo sapiens); experiment: RORγt reporter assay (GAL4-RORγt LBD luciferase in HEK293T cells); settings: HEK293T cells, 24 hours compound treatment
Sequence (P51449 258-518): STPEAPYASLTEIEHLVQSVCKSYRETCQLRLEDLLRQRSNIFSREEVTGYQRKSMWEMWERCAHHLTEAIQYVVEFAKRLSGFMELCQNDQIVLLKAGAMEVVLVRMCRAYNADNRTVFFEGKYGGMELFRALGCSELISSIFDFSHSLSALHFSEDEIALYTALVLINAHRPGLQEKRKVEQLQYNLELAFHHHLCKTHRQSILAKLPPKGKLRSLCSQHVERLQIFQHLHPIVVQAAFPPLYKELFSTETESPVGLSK
Listed here: items and their measured IC50.

Task: Request the reported IC50 associated with CCCCc1c(-c2ccccc2)cnc2ccc(C(O)(c3ccncc3)c3cncn3C)cc12 (stereo not drawn)
Output: > 6 µM

Task: Can you share its IC50? I mean this compound: OC(c1cccnc1)(c1ccc2nc(Cl)c(-c3ccccc3)c(Cl)c2c1)C1CCCNC1 (stereo not drawn)
Output: > 6 µM

Task: What value of IC50 has been recorded for this entry: COc1cccc(C(O)(c2cccnc2)c2ccc3ncc(-c4ccccc4)c(Cl)c3c2)c1 (stereo not drawn)
Output: ~6 µM

Data origin: patent US9309222B2
